# log10 of IC50 annotations
- TARGET: human IL-17A protein (Homo sapiens)
- Construct: purchased R&D 317-ILB
- Sequence (Q16552 20-155 limits assumed): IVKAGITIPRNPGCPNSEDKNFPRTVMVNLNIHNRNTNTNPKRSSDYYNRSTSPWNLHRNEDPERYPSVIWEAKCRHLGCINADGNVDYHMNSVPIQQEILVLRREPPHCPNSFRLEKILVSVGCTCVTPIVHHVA
- TEST: Inhibition of chemokine GROα/CXCL1 generation induced by human IL-17A protein in HT-29 cell
- Format: cell-based
OBSERVATION TYPE: log10 of IC50 (log10 of the value in µM)

COMPOUND | ASSAY VALUE
CCn1nccc1C(=O)N[C@H](C(=O)Nc1cnc(-c2c(C)n[nH]c2C)c(F)c1)C(C1CC1)C1CC1 | -0.49
CC[C@H]1COCCN1c1ccc(NC(=O)[C@@H](NC(=O)c2ccnn2C)C(C2CCC2)C2(C)CC2)cn1 (stereo partly drawn) | 0.86
Cn1nccc1C(=O)N[C@H](C(=O)Nc1ccc2c(c1)NC(=O)C21CCOCC1)C(C1CCC1)C1(C)CC1 (stereo partly drawn) | -1.19
C[C@@H]1COCCN1c1ccc(NC(=O)[C@@H](NC(=O)c2ccnn2C)C(C2CCC2)C2(C)CC2)cn1 (stereo partly drawn) | 0.87
Cc1n[nH]c(C)c1-c1ccc(NC(=O)[C@@H](NC(=O)c2ccnn2C(C)C)C(C2CC2)C2(C)CC2)cn1 (stereo partly drawn) | -1.06
CC[C@@H]1COCCN1c1ccc(NC(=O)[C@@H](NC(=O)c2ccnn2C)C(C2CCC2)C2(C)CC2)cn1 (stereo partly drawn) | 0.45

###

- TARGET: human IL-17A protein (Homo sapiens)
- TEST: Inhibition of chemokine GROα/CXCL1 generation induced by human IL-17A protein in HT-29 cell
Measured IC50 values are reported for all entries that follow.

COMPOUND | TARGET | IC50, nM
Cn1nccc1C(=O)N[C@H](C(=O)Nc1ccc2c(c1)NC(=O)C21CCOCC1)[C@H](c1ccccc1)C1(C)CC1 | human IL-17A protein (Homo sapiens) | 420
Cc1n[nH]c(C)c1-c1ccc(NC(=O)[C@@H](NC(=O)c2ccnn2C)C(C2CC2)C2(C)CC2)cn1 (stereo partly shown) | human IL-17A protein (Homo sapiens) | 472
Cc1nonc1C(=O)N[C@H](C(=O)Nc1ccc(-c2c(C)n[nH]c2C)nc1)C(C1CC1)C1(C)CC1 (stereo partly shown) | human IL-17A protein (Homo sapiens) | 866
CN1C(=O)C2(CCOCC2)c2ccc(NC(=O)[C@@H](NC(=O)c3ccnn3C)[C@H](c3ccccc3Cl)C3(C)CC3)cc21 | human IL-17A protein (Homo sapiens) | 1080

###

- TARGET: UniProt Q16552
- TEST: Inhibition of chemokine GROα/CXCL1 generation induced by human IL-17A protein in HT-29 cell
- Description: HT-29 (Zhongyuan Gongchuang Technology Co., Ltd. of Chengdu, Sichuan) was added to a 96-well plate at 5×10^4 cells/well, and cultured overnight in a incubator at 37° C. […] Then the GROα level in the cell culture supernatant was detected by an ELISA kit (Cisbio, #62HCXC1PEG) of the GROα. […]
OBSERVATION TYPE: log10 IC50 (log10 of the value in nM)

MOLECULE | TARGET | log10 IC50
C[C@H]1COCCN1c1ccc(NC(=O)[C@@H](NC(=O)c2ccnn2C)C(C2CCC2)C2(C)CC2)cn1 (some centres unmarked) | UniProt Q16552 | 4.03
Cn1nccc1C(=O)N[C@H](C(=O)Nc1cnc(N2CCOCC2)c(F)c1)C(C1CCC1)C1(C)CC1 (some centres unmarked) | UniProt Q16552 | 3.50
CCn1nccc1C(=O)N[C@H](C(=O)Nc1ccc(-c2c(C)n[nH]c2C)nc1)C(C1CC1)C1CC1 | UniProt Q16552 | 2.71
Cc1n[nH]c(C)c1-c1ncc(NC(=O)[C@@H](NC(=O)c2ccnn2C(C)C)C(C2CC2)C2(C)CC2)cc1F (some centres unmarked) | UniProt Q16552 | 2.34
CCn1nccc1C(=O)N[C@H](C(=O)Nc1ccc(-c2c(C)n[nH]c2C)nc1)C(C1CC1)C1(C)CC1 (some centres unmarked) | UniProt Q16552 | 2.38
Cn1nccc1C(=O)N[C@H](C(=O)Nc1ccc(C2CCOCC2)cc1)[C@H](c1ccccc1Cl)C1(C)CC1 | UniProt Q16552 | 2.57
Cn1nccc1C(=O)N[C@H](C(=O)Nc1ccc(C2CCOCC2)cn1)C(C1CCC1)C1(C)CC1 (some centres unmarked) | UniProt Q16552 | 3.20
Cc1n[nH]c(C)c1-c1ccc(NC(=O)[C@@H](NC(=O)c2ccnn2C)C(C2CC2)C2CC2)cn1 | UniProt Q16552 | 3.65
Cn1nccc1C(=O)N[C@H](C(=O)Nc1ccc2c(c1)NC(=O)C21CCOCC1)[C@H](c1ccccc1Cl)C1(C)CC1 | UniProt Q16552 | 2.40
C[C@@H]1CN(c2ccc(NC(=O)[C@@H](NC(=O)c3ccnn3C)C(C3CCC3)C3(C)CC3)cn2)CCO1 (some centres unmarked) | UniProt Q16552 | 4.07
Cc1n[nH]c(C)c1-c1ccc(NC(=O)[C@@H](NC(=O)c2ccnn2C(C)C)C(C2CC2)C2CC2)cn1 | UniProt Q16552 | 2.89
Cc1nonc1C(=O)N[C@H](C(=O)Nc1ccc(-c2c(C)n[nH]c2C)nc1)C(C1CC1)C1CC1 | UniProt Q16552 | 3.17
Cn1nccc1C(=O)N[C@H](C(=O)Nc1ccc(N2CCOCC2)nc1)[C@H](c1ccccc1Cl)C1(C)CC1 | UniProt Q16552 | 3.90
Cc1nocc1C(=O)N[C@H](C(=O)Nc1ccc(-c2c(C)n[nH]c2C)nc1)C(C1CC1)C1CC1 | UniProt Q16552 | 2.93

###

- TARGET: human IL-17A (Homo sapiens)
- Sequence (Q16552 24-155): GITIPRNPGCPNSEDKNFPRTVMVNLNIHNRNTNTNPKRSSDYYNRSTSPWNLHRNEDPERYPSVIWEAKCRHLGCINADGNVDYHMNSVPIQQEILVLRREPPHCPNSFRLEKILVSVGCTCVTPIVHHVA
- TEST: IL-17A enzyme-linked immunosorbent assay (competitive ELISA, IL-17A/IL-17R binding)
# IC50 per entry

COMPOUND | IC50 (nM)
CCN1CCN(c2ccc(NC(=O)[C@@H](NC(=O)c3ccnn3C)C(C3CCC3)C3(C)CC3)cn2)[C@H](C)C1 (stereo partly shown) | 16900
Cn1nccc1C(=O)N[C@H](C(=O)Nc1ccc(C2CCOCC2)cn1)C(C1CCC1)C1(C)CC1 (stereo partly shown) | 67
Cc1n[nH]c(C)c1-c1ccc(NC(=O)[C@@H](NC(=O)c2ccnn2C(C)C)C(C2CC2)C2CC2)cn1 | 117
CC1CN(C)CCN1c1ccc(NC(=O)[C@@H](NC(=O)c2ccnn2C)C(C2CCC2)C2(C)CC2)cn1 (stereo partly shown) | 9340
Cn1nccc1C(=O)N[C@H](C(=O)Nc1ccc2c(c1)NC(=O)C21CCOCC1)[C@H](c1ccccc1Cl)C1(C)CC1 | 96
Cn1nccc1C(=O)N[C@H](C(=O)Nc1ccc(N2CCOCC2)nc1)C(C1CCC1)C1(C)CC1 (stereo partly shown) | 236
CN1C(=O)C2(CCOCC2)c2ccc(NC(=O)[C@@H](NC(=O)c3ccnn3C)[C@H](c3ccccc3Cl)C3(C)CC3)cc21 | 104

###

- TARGET: UniProt Q16552
- TEST: Inhibition of chemokine GROα/CXCL1 generation induced by human IL-17A protein in HT-29 cell
pIC50: −log10 of the molar value.
Measured pIC50 by item
OBSERVATION TYPE: pIC50

COMPOUND | ASSAY VALUE
Cc1n[nH]c(C)c1-c1ccc(NC(=O)[C@@H](NC(=O)c2ccnn2C)C(C2CCC2)C2(C)CC2)cn1 (stereo partly shown) | 6.59
CC(C)[C@H]1COCCN1c1ccc(NC(=O)[C@@H](NC(=O)c2ccnn2C)C(C2CCC2)C2(C)CC2)cn1 (stereo partly shown) | 4.87
Cn1nccc1C(=O)N[C@H](C(=O)Nc1ccc(C2CCOCC2)cc1)C(C1CCC1)C1(C)CC1 (stereo partly shown) | 6.26
Cc1nonc1C(=O)N[C@H](C(=O)Nc1cnc(-c2c(C)n[nH]c2C)c(F)c1)C(C1CC1)C1(C)CC1 (stereo partly shown) | 5.33
Cn1nccc1C(=O)N[C@H](C(=O)Nc1cnc(C2CCOCC2)c(F)c1)C(C1CCC1)C1(C)CC1 (stereo partly shown) | 6.22
Cc1n[nH]c(C)c1-c1ccc(NC(=O)[C@@H](NC(=O)c2nonc2C(C)C)C(C2CC2)C2CC2)cn1 | 5.52
Cc1n[nH]c(C)c1-c1ncc(NC(=O)[C@@H](NC(=O)c2ccnn2C(C)C)C(C2CC2)C2CC2)cc1F | 6.65

###

- TARGET: human IL-17A (Homo sapiens)
- TEST: IL-17A enzyme-linked immunosorbent assay (competitive ELISA, IL-17A/IL-17R binding)
API: label(entry) gives rule met if the entry's IC50 is strictly smaller than 100 nM; on equality or larger values it gives rule not met.

MOLECULE | GROUP LABEL
Cn1nccc1C(=O)N[C@H](C(=O)Nc1ccc(C2CCOCC2)cc1)C(C1CCC1)C1(C)CC1 (stereo partly shown) [Compound 2] | rule met
Cc1n[nH]c(C)c1-c1ccc(NC(=O)[C@@H](NC(=O)c2ncnn2C)C(C2CC2)C2CC2)cn1 [Compound 47] | rule not met
C[C@H]1COCCN1c1ccc(NC(=O)[C@@H](NC(=O)c2ccnn2C)C(C2CCC2)C2(C)CC2)cn1 (stereo partly shown) [Compound 11] | rule met
Cc1n[nH]c(C)c1-c1ncc(NC(=O)[C@@H](NC(=O)c2ccnn2C(C)C)C(C2CC2)C2CC2)cc1F [Compound 51] | rule met
CC(C)[C@@H]1COCCN1c1ccc(NC(=O)[C@@H](NC(=O)c2ccnn2C)C(C2CCC2)C2(C)CC2)cn1 (stereo partly shown) [Compound 13] | rule not met
CCn1nccc1C(=O)N[C@H](C(=O)Nc1ccc(-c2c(C)n[nH]c2C)nc1)C(C1CC1)C1CC1 [Compound 39] | rule not met
CCc1nocc1C(=O)N[C@H](C(=O)Nc1ccc(-c2c(C)n[nH]c2C)nc1)C(C1CC1)C1CC1 [Compound 42] | rule not met
Cc1n[nH]c(C)c1-c1ccc(NC(=O)[C@@H](NC(=O)c2ccnn2C2CC2)C(C2CC2)C2CC2)cn1 [Compound 50] | rule not met
CC(C)[C@H]1COCCN1c1ccc(NC(=O)[C@@H](NC(=O)c2ccnn2C)C(C2CCC2)C2(C)CC2)cn1 (stereo partly shown) [Compound 12] | rule met
Cn1nccc1C(=O)N[C@H](C(=O)Nc1cnc(C2CCOCC2)c(F)c1)C(C1CCC1)C1(C)CC1 (stereo partly shown) [Compound 4] | rule met
Cc1n[nH]c(C)c1-c1ccc(NC(=O)[C@@H](NC(=O)c2ccn(C3CC3)n2)C(C2CC2)C2CC2)cn1 [Compound 49] | rule not met
Cn1nccc1C(=O)N[C@H](C(=O)Nc1ccc2c(c1)NC(=O)C21CCOCC1)[C@H](c1ccccc1)C1(C)CC1 [Compound 25] | rule met
Cc1nocc1C(=O)N[C@H](C(=O)Nc1ccc(-c2c(C)n[nH]c2C)nc1)C(C1CC1)C1CC1 [Compound 46] | rule not met
Cc1n[nH]c(C)c1-c1ccc(NC(=O)[C@@H](NC(=O)c2ccnn2C)C(C2CCC2)C2(C)CC2)cn1 (stereo partly shown) [Compound 37] | rule met
Cc1n[nH]c(C)c1-c1ccc(NC(=O)[C@@H](NC(=O)c2ccnn2C)C(C2CC2)C2(C)CC2)cn1 (stereo partly shown) [Compound 53] | rule met
CCc1nonc1C(=O)N[C@H](C(=O)Nc1ccc(-c2c(C)n[nH]c2C)nc1)C(C1CC1)C1CC1 [Compound 43] | rule not met
Cn1nccc1C(=O)N[C@H](C(=O)Nc1ccc(N2CCOCC2C2CC2)nc1)C(C1CCC1)C1(C)CC1 (stereo partly shown) [Compound 17] | rule not met
Cn1nccc1C(=O)N[C@H](C(=O)Nc1ccc(C2CCOCC2)cc1)[C@H](c1ccccc1Cl)C1(C)CC1 [Compound 62] | rule met
C[C@@H]1CN(c2ccc(NC(=O)[C@@H](NC(=O)c3ccnn3C)C(C3CCC3)C3(C)CC3)cn2)CCN1 (stereo partly shown) [Compound 24] | rule not met
CC[C@@H]1COCCN1c1ccc(NC(=O)[C@@H](NC(=O)c2ccnn2C)C(C2CCC2)C2(C)CC2)cn1 (stereo partly shown) [Compound 15] | rule met
Cn1nccc1C(=O)N[C@H](C(=O)Nc1ccc(C(C)(C)c2nnc(C3CCC3)o2)cc1)C(C1CCC1)C1(C)CC1 (stereo partly shown) [Compound 36] | rule not met
Cc1n[nH]c(C)c1-c1ccc(NC(=O)[C@@H](NC(=O)c2nocc2C(C)C)C(C2CC2)C2CC2)cn1 [Compound 45] | rule not met
Cn1nccc1C(=O)N[C@H](C(=O)Nc1ccc(N2CCOC[C@H]2CO)nc1)C(C1CCC1)C1(C)CC1 (stereo partly shown) [Compound 18] | rule not met
Cc1n[nH]c(C)c1-c1ncc(NC(=O)[C@@H](NC(=O)c2ccnn2C(C)C)C(C2CC2)C2(C)CC2)cc1F (stereo partly shown) [Compound 58] | rule met
Cn1nccc1C(=O)N[C@H](C(=O)Nc1ccc(N2CCOCC2)nc1)[C@H](c1ccccc1Cl)C1(C)CC1 [Compound 60] | rule not met
CC[C@H]1COCCN1c1ccc(NC(=O)[C@@H](NC(=O)c2ccnn2C)C(C2CCC2)C2(C)CC2)cn1 (stereo partly shown) [Compound 14] | rule met
Cc1nonc1C(=O)N[C@H](C(=O)Nc1ccc(-c2c(C)n[nH]c2C)nc1)C(C1CC1)C1(C)CC1 (stereo partly shown) [Compound 55] | rule met
